pIC50: −log10 of the molar value.
Endpoint summary: pIC50, system: TGF-beta receptor type-1 (Homo sapiens), multiple sources combined.

Solved entries:
compound | pIC50
Cc1nc(-c2ccccc2)c(Oc2ccnc(Nc3cccc(NS(=O)(=O)C(F)(F)F)c3)c2)s1 | > 7.00
CCc1nc(-c2ccccc2)c(Oc2ccnc(Nc3ccc(C(=O)NC)cn3)c2)s1 | > 7.00
Cc1cccc(-c2nc3n(c2-c2ccnc(-c4nc5c([nH]4)CN(C(=O)CC#N)C5)c2)CCC3)n1 | 8.14

Recall the reported pIC50 of `CNC(=O)c1ccnc(Nc2cc(Oc3sc(C4CC4)nc3-c3cccc(C)n3)ccn2)c1` on TGF-beta receptor type-1 (Homo sapiens) and write it down.
> 7.00

Recall the reported pIC50 of `Nc1nc(-c2ccccc2)c(Oc2ccnc(Nc3cccc(S(N)(=O)=O)c3)c2)s1` on TGF-beta receptor type-1 (Homo sapiens) and write it down.
> 7.00

Recall the reported pIC50 of Cc1cccc(-c2nc3n(c2-c2ccc4[nH]ncc4c2)CC2CC32)n1 (centres unmarked) on TGF-beta receptor type-1 (Homo sapiens) and write it down.
7.82

Recall the reported pIC50 of Cc1cccc(-c2nn(CC(C)O)cc2-c2ccnc(-c3nc4c([nH]3)CNC4)c2)n1 (centres unmarked) on TGF-beta receptor type-1 (Homo sapiens) and write it down.
8.21

###

Endpoint summary: pIC50, system: TGF-beta receptor type-1 (Homo sapiens), multiple sources combined.
pIC50: −log10 of the molar value.

Solved entries:
compound | pIC50
CN(C)c1nc(-c2ccccc2)c(Oc2ccnc(Nc3ccnc(C(C)(C)O)c3)c2)s1 | > 7.00
Cc1cccc(-c2nc3n(c2-c2ccnc(-c4nc5c([nH]4)CNC5)c2)CC2CC32)n1 (centres unmarked) | 7.66
NC(=O)c1ccc(Nc2cc(Oc3sc(C4CCCC4)nc3-c3ccccc3)ccn2)nc1 | < 7.00

Recall the reported pIC50 of `Cc1cccc(-c2nc3n(c2-c2ccnc(-c4nc5c([nH]4)CNCC5)c2)CCC3)n1` on TGF-beta receptor type-1 (Homo sapiens) and write it down.
8.25

Recall the reported pIC50 of `CNC(=O)c1cccc(Nc2cc(Oc3sc(C4CC4)nc3-c3ccccc3)ccn2)n1` on TGF-beta receptor type-1 (Homo sapiens) and write it down.
> 7.00

Recall the reported pIC50 of `CS(=O)(=O)Nc1ccc(Nc2cc(Oc3sc(C4CC4)nc3-c3ccccc3)ccn2)nc1` on TGF-beta receptor type-1 (Homo sapiens) and write it down.
> 7.00

Recall the reported pIC50 of `CCS(=O)(=O)N1Cc2nc(-c3cc(-c4cn(C)nc4-c4cccc(C)n4)ccn3)[nH]c2C1` on TGF-beta receptor type-1 (Homo sapiens) and write it down.
8.68

Recall the reported pIC50 of `NC(=O)c1ccc(Nc2cc(Oc3sc(C4CCCCC4)nc3-c3ccccc3)ccn2)nc1` on TGF-beta receptor type-1 (Homo sapiens) and write it down.
< 7.00

Recall the reported pIC50 of `Cc1nc(-c2ccccc2)c(Oc2ccnc(Nc3cccc(S(N)(=O)=O)c3)n2)s1` on TGF-beta receptor type-1 (Homo sapiens) and write it down.
> 7.00

Recall the reported pIC50 of `CCc1nc(-c2ccccc2)c(Oc2ccnc(Nc3ccc(S(N)(=O)=O)cc3)c2)s1` on TGF-beta receptor type-1 (Homo sapiens) and write it down.
> 7.00

Recall the reported pIC50 of `CN(C)c1nc(-c2ccccc2)c(Oc2ccnc(Nc3ccc(S(N)(=O)=O)cc3)c2)s1` on TGF-beta receptor type-1 (Homo sapiens) and write it down.
> 7.00
